All figures here come from ChEMBL document CHEMBL1255544.

system: Escherichia coli; assay: Antimicrobial activity against Escherichia coli ATCC […] after 24 hrs by broth dilution method; assay type: functional
Assay readout: MIC (µg/mL)

A = COc1ccc(OC)c(/C=N/NC(=O)c2cc(Cl)c(Cl)[nH]2)c1
B = O=C(N/N=C/c1c(O)cccc1O)c1cc(Cl)c[nH]1
C = COc1ccc(/C=C/C(=O)c2cc(Cl)c[nH]2)cc1
Lookup: Order these by MIC, descending, and give the full ranking. Labels, ranked as asked.
Found: C, B, A
(C: 12.5 µg/mL, B: 6.25 µg/mL, A: 3.12 µg/mL)

1 = O=C(/C=C/c1ccc(Cl)cc1)c1cc(Cl)c(Cl)[nH]1
2 = COc1ccc(/C=N/NC(=O)c2cc(Cl)c[nH]2)cc1OC
Lookup: Quick check, higher MIC between 1 and 2 ? Label of pick, please.
Found: 2
(2: 12.5 µg/mL, 1: 6.25 µg/mL)

1 = COc1ccc(/C=C/C(=O)c2cc(Cl)c(Cl)[nH]2)cc1OC
2 = O=C(/C=C/c1ccco1)c1cc(Cl)c(Cl)[nH]1
3 = COc1ccc(OC)c(/C=N/NC(=O)c2cc(Cl)c[nH]2)c1
Lookup: Place the items in sequence of falling MIC. Labels, ranked as asked.
Found: 3, 1, 2

* * *

system: Escherichia coli; assay: Antimicrobial activity against Escherichia coli ATCC […] after 24 hrs by broth dilution method; type: functional
Assay readout: MIC (µg/mL)

Solved cases (6 shown):
O=C(N/N=C/c1ccccc1)c1cc(Cl)c[nH]1 : 12.5
COc1ccc(OC)c(/C=C/C(=O)c2cc(Cl)c(Cl)[nH]2)c1 : 6.25
COc1ccc(OC)c(/C=C/C(=O)c2cc(Cl)c[nH]2)c1 : 12.5
O=C(/C=C/c1ccco1)c1ccc(Cl)[nH]1 : 12.5
O=C(/C=C/c1ccccc1O)c1cc(Cl)c[nH]1 : 25
O=C(O)c1cn(C2CC2)c2cc(N3CCNCC3)c(F)cc2c1=O [CIPROFLOXACIN] : 1.06

1 = O=C(N/N=C/c1ccco1)c1cc(Cl)c[nH]1
2 = COc1ccc(/C=N/NC(=O)c2cc(Cl)c(Cl)[nH]2)cc1OC
3 = O=C(N/N=C/c1ccccc1)c1cc(Cl)c(Cl)[nH]1
Lookup: Place the items in sequence of falling MIC. Labels, ranked as asked.
Found: 1, 3, 2
(1: 25 µg/mL, 3: 12.5 µg/mL, 2: 3.12 µg/mL)

* * *

Let's look at some compounds and their measured diameter of the inhibition zone (DIZ).
tested on: Pseudomonas aeruginosa; assay: Antimicrobial activity against Pseudomonas aeruginosa ATCC 27853 after 24 hrs by disk diffusion method; format: functional; note: test concentration or dose not given here
Return type: number; implicit unit mm.

COc1ccc(OC)c(/C=N/NC(=O)c2cc(Cl)c[nH]2)c1 : 15
O=C(N/N=C/c1ccco1)c1cc(Cl)c(Cl)[nH]1 : 24

Lookup: Answer with reported diameter of the inhibition zone (DIZ) of COc1ccc(/C=N/NC(=O)c2cc(Cl)c(Cl)[nH]2)cc1
Found: 20

Lookup: Answer with reported diameter of the inhibition zone (DIZ) of COc1ccc(/C=C/C(=O)c2cc(Cl)c[nH]2)cc1OC
Found: 14

* * *

system: Escherichia coli; assay: Antimicrobial activity against Escherichia coli ATCC […] after 24 hrs by broth dilution method; assay type: functional
Assay readout: MIC (µg/mL)

O=C(/C=C/c1ccc(Cl)cc1)c1cc(Cl)c[nH]1 : 25
COc1ccc(/C=C/C(=O)c2cc(Cl)c[nH]2)cc1OC : 12.5
CN(C)c1ccc(/C=N/NC(=O)c2cc(Cl)c[nH]2)cc1 : 12.5
COc1ccc(/C=N/NC(=O)c2cc(Cl)c(Cl)[nH]2)cc1 : 12.5
O=C(N/N=C/c1ccc(Cl)cc1)c1cc(Cl)c[nH]1 : 12.5

1 = O=C(N/N=C/c1ccco1)c1cc(Cl)c(Cl)[nH]1
2 = O=C(/C=C/c1ccco1)c1cc(Cl)c[nH]1
3 = COc1ccc(/C=C/C(=O)c2ccc(Cl)[nH]2)cc1
4 = COc1ccc(/C=C/C(=O)c2ccc(Cl)[nH]2)cc1OC
Lookup: Order each entry by recorded MIC, climbing from the minimum. Labels, ranked as asked.
Found: 1, 2, 4, 3
(1: 3.12 µg/mL, 2: 12.5 µg/mL, 4: 25 µg/mL, 3: 50 µg/mL)

a = COc1ccc(/C=N/NC(=O)c2cc(Cl)c[nH]2)cc1
b = CN(C)c1ccc(/C=N/NC(=O)c2cc(Cl)c(Cl)[nH]2)cc1
Lookup: Quick check, higher MIC between a and b ? Label of pick, please.
Found: a
(a: 12.5 µg/mL, b: 6.25 µg/mL)
